Below is a list of entries, each paired with its recorded IC50 value.
- experimental-system: PR (Homo sapiens)
- Sequence (P06401 whole entry): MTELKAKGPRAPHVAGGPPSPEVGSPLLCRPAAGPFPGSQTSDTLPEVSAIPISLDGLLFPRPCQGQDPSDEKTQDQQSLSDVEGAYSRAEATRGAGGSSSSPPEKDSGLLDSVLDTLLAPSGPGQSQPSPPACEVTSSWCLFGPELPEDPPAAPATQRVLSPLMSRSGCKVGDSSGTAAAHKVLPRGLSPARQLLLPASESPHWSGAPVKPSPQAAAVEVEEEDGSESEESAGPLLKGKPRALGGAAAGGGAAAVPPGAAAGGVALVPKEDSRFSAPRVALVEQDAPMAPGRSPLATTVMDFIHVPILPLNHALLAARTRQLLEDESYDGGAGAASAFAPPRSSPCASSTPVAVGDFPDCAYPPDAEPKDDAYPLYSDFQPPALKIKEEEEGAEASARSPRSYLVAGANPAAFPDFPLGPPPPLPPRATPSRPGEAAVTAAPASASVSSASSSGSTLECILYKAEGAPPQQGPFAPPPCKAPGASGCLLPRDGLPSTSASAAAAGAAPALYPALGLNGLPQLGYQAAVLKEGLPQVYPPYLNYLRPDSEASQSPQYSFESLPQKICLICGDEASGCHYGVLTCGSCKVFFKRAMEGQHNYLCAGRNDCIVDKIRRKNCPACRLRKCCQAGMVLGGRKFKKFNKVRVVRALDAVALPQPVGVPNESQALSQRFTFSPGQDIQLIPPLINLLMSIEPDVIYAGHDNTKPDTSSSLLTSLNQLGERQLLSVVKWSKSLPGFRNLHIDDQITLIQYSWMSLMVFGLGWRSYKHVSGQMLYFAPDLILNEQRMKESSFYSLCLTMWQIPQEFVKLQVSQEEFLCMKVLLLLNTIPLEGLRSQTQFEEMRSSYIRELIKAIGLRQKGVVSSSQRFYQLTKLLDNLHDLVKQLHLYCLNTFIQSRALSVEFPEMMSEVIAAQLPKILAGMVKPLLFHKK
- test-name: Co-transfection assay, PR antagonist activity (CV-1 cells, in presence of progesterone)
- Format: cell-based
- Design: expressed in transfected cells; host or cells: CV-1 cells
- test-parameters: read-out: PR Antagonist CV-1 Cells Potency
Your answer is read as nM, so omit the unit and give the number.

CC1(C)OC(=O)Nc2ccc(C3CCCCCC3)cc21 [Compound 671] = 200
CC1(C)OC(=O)Nc2ccc(C3=CCCCC3)cc21 [Compound 667] = 70
CC1(C)OC(=S)Nc2ccc(C3=CCCCC3)cc21 [Compound 689] = 35
CC1(C)OC(=S)Nc2ccc(C3=CC(=O)CCC3)cc21 [Compound 695] = 20

From here, focus on the item given below.
Problem: Query: IC50; subject: CC1(C)OC(=S)Nc2ccc(C3=CC(O)CCC3)cc21 (racemic) [Compound 697]
Result: 316

----------
- experimental-system: human AR (Homo sapiens)
- test-name: Co-transfection assay, AR antagonist activity (CV-1 cells, in presence of DHT)
- Type: cell-based
- test-parameters: CV-1 cells; percent maximal inhibition, DHT at its EC50
Decide using AR Antagonist CV-1 Cells Efficacy (%): a value greater than or equal to 80% is satisfied, a smaller one is not satisfied.

O=c1cc(C(F)(F)F)c2cc(NCC(Cl)(Cl)Cl)ccc2[nH]1 = not satisfied
CC1(C)OC(=S)Nc2ccc(C3=CCCCC3)cc21 = satisfied
COc1cccc(-c2ccc3[nH]c(=O)cc(C)c3c2)c1 = satisfied
CCC[C@@H]1CC[C@H](CCC)N1c1ccc2[nH]c(=O)cc(C(F)(F)F)c2c1 = satisfied
O=c1cc(C(F)(F)F)c2cc(C3CCCCC3)ccc2[nH]1 = satisfied
CCC(C)c1cc2c(C(F)(F)F)cc(=O)[nH]c2cc1N (stereo not shown) = not satisfied

Problem: State whether the measured AR Antagonist CV-1 Cells Efficacy (%) reaches 80%, counting equality as reaching it, for Nc1cc2[nH]c(=O)cc(C(F)(F)F)c2cc1OCC(F)(F)F
Result: not satisfied

----------
- experimental-system: human AR (Homo sapiens, UniProt P10275)
- Sequence (P10275 whole entry): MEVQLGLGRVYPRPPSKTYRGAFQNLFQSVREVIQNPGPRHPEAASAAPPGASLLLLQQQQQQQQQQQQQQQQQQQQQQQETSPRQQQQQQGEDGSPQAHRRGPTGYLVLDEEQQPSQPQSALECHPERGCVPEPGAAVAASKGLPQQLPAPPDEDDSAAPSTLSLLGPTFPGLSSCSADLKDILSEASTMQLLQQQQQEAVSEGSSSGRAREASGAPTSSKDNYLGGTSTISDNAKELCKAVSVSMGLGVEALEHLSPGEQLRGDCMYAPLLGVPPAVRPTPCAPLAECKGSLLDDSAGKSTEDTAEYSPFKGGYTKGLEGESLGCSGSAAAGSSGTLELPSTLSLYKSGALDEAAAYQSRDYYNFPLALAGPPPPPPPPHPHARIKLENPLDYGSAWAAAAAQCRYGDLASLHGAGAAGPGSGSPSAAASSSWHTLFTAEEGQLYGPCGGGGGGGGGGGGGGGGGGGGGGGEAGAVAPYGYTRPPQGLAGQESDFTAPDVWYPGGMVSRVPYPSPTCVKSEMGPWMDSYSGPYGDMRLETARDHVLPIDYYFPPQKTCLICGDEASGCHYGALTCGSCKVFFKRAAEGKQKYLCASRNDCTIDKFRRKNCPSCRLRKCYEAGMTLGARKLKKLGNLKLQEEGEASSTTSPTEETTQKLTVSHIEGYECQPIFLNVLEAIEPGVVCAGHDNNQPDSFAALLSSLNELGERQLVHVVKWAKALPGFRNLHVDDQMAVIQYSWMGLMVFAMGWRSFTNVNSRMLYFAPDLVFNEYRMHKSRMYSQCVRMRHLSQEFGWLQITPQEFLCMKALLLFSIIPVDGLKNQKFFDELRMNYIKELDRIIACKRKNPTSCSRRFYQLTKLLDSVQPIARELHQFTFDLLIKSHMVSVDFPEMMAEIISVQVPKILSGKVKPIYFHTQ
- test-name: Co-transfection assay, AR antagonist activity (CV-1 cells, in presence of DHT)
- Type: cell-based
Hi! Just check whether AR Antagonist CV-1 Cells Efficacy (%) is below 70%. Below gives condition met, equal or above gives condition not met.

CC(C)Nc1ccc2c(C(F)(F)F)cc(=O)[nH]c2c1 = condition not met
CCCCN(CCCC)c1ccc2[nH]c(=O)cc(C(F)(F)F)c2c1 = condition met
C=CC(C)(C)Nc1ccc2c(C(F)(F)F)cc(=O)[nH]c2c1 = condition not met
O=c1cc(C(F)(F)F)c2ccc(NCC(F)(F)C(F)(F)F)cc2[nH]1 = condition not met
CCCNc1ccc2c(C(F)(F)F)cc(=O)[nH]c2c1 = condition not met

Problem: Does O=c1cc(C(F)(F)F)c2ccc(NCC(F)(F)F)cc2[nH]1 have AR Antagonist CV-1 Cells Efficacy (%) strictly under 70%?
Result: condition met

----------
Below is a list of entries, each paired with its recorded AR Agonist CV-1 Cells Efficacy (%) value.
- experimental-system: human AR (Homo sapiens)
- test-name: Co-transfection assay, AR agonist activity (CV-1 cells, MTV-LUC reporter)
- Assay type: cell-based
- test-parameters: CV-1 cells; percent maximal response relative to reference agonist DHT
In your response, put the unit directly after the numeric value.

See these solved cases before continuing.
C=CCN(CC=C)c1ccc2[nH]c(=O)cc(C(F)(F)F)c2c1 [Compound 280] = 78%
CC(C)CN(CC(C)C)c1ccc2[nH]c(=O)cc(C(F)(F)F)c2c1 [Compound 221] = 114%
CS(=O)(=O)N(CC(F)(F)F)c1ccc2[nH]c(=O)cc(C(F)(F)F)c2c1 [Compound 295] = 30%

Problem: Query: AR Agonist CV-1 Cells Efficacy (%); subject: CCCN(CC1CC1)c1ccc2[nH]c(=O)cc(C(F)(F)F)c2c1 [Compound 254]
Result: 78%

Problem: Query: AR Agonist CV-1 Cells Efficacy (%); subject: CC1CCCCN1c1ccc2[nH]c(=O)cc(C(F)(F)F)c2c1 (racemic) [Compound 314]
Result: 83%

Problem: Query: AR Agonist CV-1 Cells Efficacy (%); subject: CC(C)CN(c1ccc2[nH]c(=O)cc(C(F)(F)F)c2c1)C(C)C(F)(F)F (racemic) [Compound 290]
Result: 37%

Problem: Query: AR Agonist CV-1 Cells Efficacy (%); subject: CSCC1CCCCN1c1ccc2[nH]c(=O)cc(C(F)(F)F)c2c1 (racemic) [Compound 426]
Result: 93%

Problem: Query: AR Agonist CV-1 Cells Efficacy (%); subject: Cc1cc(=O)[nH]c2ccc(N(CC(C)C)CC(F)(F)F)cc12 [Compound 381]
Result: 72%

Problem: Query: AR Agonist CV-1 Cells Efficacy (%); subject: O=c1cc(C(F)(F)F)c2cc(N3CCCC[C@@H]3CCl)ccc2[nH]1 [Compound 433]
Result: 120%

Problem: Query: AR Agonist CV-1 Cells Efficacy (%); subject: O=c1cc(C(F)(F)F)c2cc(N3CCCC[C@@H]3[C@@H](O)C(F)(F)F)ccc2[nH]1 [Compound 457]
Result: 85%

Problem: Query: AR Agonist CV-1 Cells Efficacy (%); subject: COC[C@H]1CCCN1c1ccc2[nH]c(=O)cc(C(F)(F)F)c2c1 [Compound 423]
Result: 57%

Problem: Query: AR Agonist CV-1 Cells Efficacy (%); subject: O=c1cc(C(F)(F)F)c2cc(N3CCCCCC3)ccc2[nH]1 [Compound 330]
Result: 81%

Problem: Query: AR Agonist CV-1 Cells Efficacy (%); subject: CC1(C)OC(=O)Nc2ccc(N(CC(F)(F)F)CC(F)(F)F)cc21 [Compound 490]
Result: 113%

Problem: Query: AR Agonist CV-1 Cells Efficacy (%); subject: CC(C)c1ccc2[nH]c(=O)cc(C(F)(F)F)c2c1 [Compound 615]
Result: 23%

Problem: Query: AR Agonist CV-1 Cells Efficacy (%); subject: C[C@@H]1C=C[C@H](C)N1c1ccc2[nH]c(=O)cc(C(F)(F)F)c2c1 [Compound 332]
Result: 121%

Problem: Query: AR Agonist CV-1 Cells Efficacy (%); subject: O=c1cc(C(F)(F)F)c2cc(N(CC(Cl)Cl)CC(Cl)Cl)ccc2[nH]1 [Compound 232]
Result: 55%

Problem: Query: AR Agonist CV-1 Cells Efficacy (%); subject: O=C(Nc1ccc2c(C(F)(F)F)cc(=O)[nH]c2c1)C(F)(F)F [Compound 528]
Result: 36%

Problem: Query: AR Agonist CV-1 Cells Efficacy (%); subject: O=c1cc(C(F)(F)F)c2cc(N3CCCCC3)ccc2[nH]1 [Compound 311]
Result: 42%

Problem: Query: AR Agonist CV-1 Cells Efficacy (%); subject: O=c1cc(C(F)(F)F)c2cc(N3CCCCC3CCOCc3ccccc3)ccc2[nH]1 (racemic) [Compound 445]
Result: 104%

Problem: Query: AR Agonist CV-1 Cells Efficacy (%); subject: CC1CN(c2ccc3[nH]c(=O)cc(C(F)(F)F)c3c2)C(C(F)(F)F)O1 (racemic) [Compound 351]
Result: 79%

Problem: Query: AR Agonist CV-1 Cells Efficacy (%); subject: O=c1cc(C(F)(F)F)c2cc(C3=CCCCC3)ccc2[nH]1 [Compound 630]
Result: 30%

Problem: Query: AR Agonist CV-1 Cells Efficacy (%); subject: CCCN(CC)c1ccc2[nH]c(=O)cc(C(F)(F)F)c2c1 [Compound 238]
Result: 77%

Problem: Query: AR Agonist CV-1 Cells Efficacy (%); subject: C[C@@H]1CC[C@H](C)N1c1ccc2[nH]c(=O)cc(C(F)(F)F)c2c1 [Compound 328]
Result: 93%

Problem: Query: AR Agonist CV-1 Cells Efficacy (%); subject: CCN(CC(C)C)c1ccc2[nH]c(=O)cc(C(F)(F)F)c2c1 [Compound 241]
Result: 73%

Problem: Query: AR Agonist CV-1 Cells Efficacy (%); subject: O=c1cc(C(F)(F)F)c2cc(N(CC(F)(F)Cl)CC(F)(F)Cl)ccc2[nH]1 [Compound 225]
Result: 90%

Problem: Query: AR Agonist CV-1 Cells Efficacy (%); subject: CCCN(c1ccc2[nH]c(=O)cc(C(F)(F)F)c2c1)C(C)CC (racemic) [Compound 255]
Result: 135%

Problem: Query: AR Agonist CV-1 Cells Efficacy (%); subject: CCCN(CC(F)(F)F)c1ccc2[nH]c(=O)cc(C)c2c1 [Compound 374]
Result: 77%

----------
- experimental-system: human AR (Homo sapiens)
- test-name: Co-transfection assay, AR antagonist activity (CV-1 cells, in presence of DHT)
- Type: cell-based
- test-parameters: CV-1 cells; antagonist potency IC50, DHT at its EC50; read-out: AR Antagonist CV-1 Cells Potency
quantity-name: IC50

Problem: Query: IC50; subject: CC1CN(c2ccc3[nH]c(=O)cc(C(F)(F)F)c3c2)C(C(F)(F)F)O1 (racemic)
Result: > 10 µM
